# Method: Induction of chondrogenesis in human MSC assessed as maximum activity at 20.58 nM incubated for 6 days by rhodamine B and Nile red staining based imaging analysis relative to control
# Type: functional
# Assay Context: BMMSC, 144 h, time 6 day
Metric Name: Emax at 0.02058 µM (%)
Use % as the unit, but write only the number.

Please review the entries below; each comes with its answer.
Compound Smiles	Reported Value
COc1cncc(-c2ccc3[nH]nc(-c4nc5c(-c6cccc(F)c6)nccc5[nH]4)c3n2)c1	60.4
CCC(=O)Nc1cncc(-c2ccc3[nH]nc(-c4nc5c(N6CCCCC6)ccnc5[nH]4)c3n2)c1	38.3
Oc1cncc(-c2ccc3[nH]nc(-c4nc5c(-c6cccc(F)c6)cncc5[nH]4)c3n2)c1	53.6

Let us move to another entry and its Emax at 0.02058 µM.
**Q:** Which Emax at 0.02058 µM reading was recorded for the molecule `CCNCc1cncc(-c2ccc3[nH]nc(-c4nc5c(-c6cc(F)cc(NCCN(C)C)c6)ccnc5[nH]4)c3n2)c1` ?
**A:** 149

----------
# Method: Effect on Wnt signaling pathway in human SW480 cells harbouring TCF/LEF luciferase reporter gene and SP5-Luc reporter gene incubated for 36 to 48 hrs by luminescence assay
# Format: cell-based
Recorded pEC50 for the following compounds
# pEC50 = -log10(concentration in molar units)

Please review the entries below; each comes with its answer.
Compound Smiles	pEC50
CN1CCN(c2cccc3[nH]c(-c4n[nH]c5ncc(-c6cncc(CN7CCCCC7)c6)cc45)cc23)CC1	5.32
c1cncc(-c2cc3c(-c4nc5c(-c6cccnc6)cccc5[nH]4)n[nH]c3cn2)c1	7.03
CC(C)(C)C(=O)Nc1cncc(-c2ccc3[nH]nc(-c4nc5c(-c6ccc(F)cc6)cncc5[nH]4)c3n2)c1	5.56
Nc1cncc(-c2cnc3[nH]nc(-c4cc5c(-c6ccccc6F)ccnc5[nH]4)c3c2)c1	6.13
O=C(Cc1ccccc1)Nc1cncc(-c2ccc3[nH]nc(-c4nc5c(-c6ccoc6)cncc5[nH]4)c3c2)c1	7.48
CN1CCN(c2nccc3[nH]c(-c4n[nH]c5ccc(-c6cncc(CN7CCCCC7)c6)nc45)cc23)CC1	5.38

**Q:** Which pEC50 reading was recorded for the compound `CCC(=O)Nc1cncc(-c2cnc3[nH]nc(-c4cc5c(-c6cccnc6)cccc5[nH]4)c3c2)c1` ?
**A:** 6.74

**Q:** Which pEC50 reading was recorded for the compound `CN(C)Cc1cncc(-c2ccc3[nH]nc(-c4cc5c(N6CCCCC6)cccc5[nH]4)c3c2)c1` ?
**A:** 6.24

**Q:** Which pEC50 reading was recorded for the compound `CCNCc1cncc(-c2ccc3[nH]nc(-c4cc5ccccc5[nH]4)c3c2)c1` ?
**A:** 6.40

**Q:** Which pEC50 reading was recorded for the compound `CC(C)C(=O)Nc1cncc(-c2ccc3[nH]nc(-c4nc5c(-c6ccccc6F)cncc5[nH]4)c3c2)c1` ?
**A:** 8.40

**Q:** Which pEC50 reading was recorded for the compound `CN(C)Cc1cncc(-c2cc3c(-c4cc5c(N6CCN(C)CC6)nccc5[nH]4)n[nH]c3cn2)c1` ?
**A:** 5.41

**Q:** Which pEC50 reading was recorded for the compound `Cc1cc(-c2ccc3[nH]nc(C(=O)Nc4ccc(OC5CCN(C)CC5)cc4)c3c2)sn1` ?
**A:** 6.19

**Q:** Which pEC50 reading was recorded for the compound `Fc1ccc(-c2nccc3[nH]c(-c4n[nH]c5cnc(-c6cncc(CN7CCC(F)(F)C7)c6)cc45)cc23)cc1` ?
**A:** 6.54

**Q:** Which pEC50 reading was recorded for the compound `CN(C)Cc1cncc(-c2cc3c(-c4cc5c(-c6cccc(F)c6)nccc5[nH]4)n[nH]c3cn2)c1` ?
**A:** 5.73

**Q:** Which pEC50 reading was recorded for the compound `CN1CCN(c2ccc(NC(=O)c3n[nH]c4ccc(-c5cncc(CN6CCC(F)(F)C6)c5)cc34)cn2)CC1` ?
**A:** 8.40

**Q:** Which pEC50 reading was recorded for the compound `CN(C)Cc1cncc(-c2ccc3[nH]nc(-c4cc5cnccc5[nH]4)c3n2)c1` ?
**A:** 5.94

**Q:** Which pEC50 reading was recorded for the compound `Cc1ncc(NC(=O)c2n[nH]c3ccc(-c4cnc(C)n4C)cc23)s1` ?
**A:** 6.47

**Q:** Which pEC50 reading was recorded for the compound `CCNCc1cncc(-c2cc3c(-c4nc5c(-c6ccsc6)nccc5[nH]4)n[nH]c3cn2)c1` ?
**A:** 7.23

**Q:** Which pEC50 reading was recorded for the compound `CN(C)Cc1cncc(-c2cnc3[nH]nc(-c4nc5c(-c6cccs6)cncc5[nH]4)c3c2)c1` ?
**A:** 7.32

**Q:** Which pEC50 reading was recorded for the compound `O=C(Nc1c[nH]nc1C(=O)Nc1cncc(-c2cccc(F)c2)c1)c1cncc(F)c1` ?
**A:** 6.32

**Q:** Which pEC50 reading was recorded for the compound `Cc1n[nH]c2ccc(-c3cncc(O[C@H]4CCNC[C@H]4F)n3)cc12` ?
**A:** 6.08

**Q:** Which pEC50 reading was recorded for the compound `CCCC(=O)Nc1cncc(-c2ccc3[nH]nc(-c4nc5c(-c6ccsc6)cncc5[nH]4)c3n2)c1` ?
**A:** 5.44

**Q:** Which pEC50 reading was recorded for the compound `c1ncc(-c2ccc3[nH]nc(-c4cc5c(N6CCCCC6)cncc5[nH]4)c3c2)cc1CN1CCCC1` ?
**A:** 5.74

**Q:** Which pEC50 reading was recorded for the compound `CS(=O)(=O)NCc1cc(F)cc(-c2nccc3[nH]c(-c4n[nH]c5ncc(-c6cncc(NC(=O)C7CCC7)c6)cc45)cc23)c1` ?
**A:** 5.44

**Q:** Which pEC50 reading was recorded for the compound `CN(C)Cc1cncc(-c2cc3c(-c4nc5c(-c6cccc(F)c6)cccc5[nH]4)n[nH]c3cn2)c1` ?
**A:** 7.09

**Q:** Which pEC50 reading was recorded for the compound `CC(C)Nc1cncc(-c2ccc3[nH]nc(-c4nc5c(-c6ccoc6)nccc5[nH]4)c3c2)c1` ?
**A:** 7.36

These measurements were taken from ChEMBL document CHEMBL4739717.
